Attribution: patent US11434242B2

For each record, write down the corresponding Plasma (0.1 μM), activity in % of control.
target: Dopamine beta hydroxylase (Homo sapiens); construct: 125 μl of plasma; tissue Instituto Português do Sangue Transplantação; host or cells: human plasma from healthy donors; test: Dopamine beta hydroxylase activity in human plasma; type: biochemical; details: inhibitor 0.1 μM
Sequence (P09172 40-617 limits assumed): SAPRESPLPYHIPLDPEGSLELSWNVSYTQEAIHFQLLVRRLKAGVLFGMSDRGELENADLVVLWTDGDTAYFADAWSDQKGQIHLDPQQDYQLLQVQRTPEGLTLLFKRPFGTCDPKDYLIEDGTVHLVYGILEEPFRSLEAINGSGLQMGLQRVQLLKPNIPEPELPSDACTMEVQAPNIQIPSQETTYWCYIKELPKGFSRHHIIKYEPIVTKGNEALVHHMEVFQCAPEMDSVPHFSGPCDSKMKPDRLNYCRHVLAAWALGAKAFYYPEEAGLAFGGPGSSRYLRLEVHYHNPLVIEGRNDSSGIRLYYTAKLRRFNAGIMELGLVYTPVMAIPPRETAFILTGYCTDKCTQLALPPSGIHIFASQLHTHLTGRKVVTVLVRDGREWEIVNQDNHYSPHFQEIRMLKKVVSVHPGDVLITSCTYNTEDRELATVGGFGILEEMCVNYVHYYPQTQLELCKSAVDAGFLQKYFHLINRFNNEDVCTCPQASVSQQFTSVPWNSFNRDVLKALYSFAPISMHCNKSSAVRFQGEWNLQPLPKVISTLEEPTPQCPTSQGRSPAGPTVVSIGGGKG

Fc1ccc(Br)c(F)c1[C@H]1Cc2c(CCN3CCC(F)(F)CC3)[nH]c(=S)n2C1 ... 77.1 % of control
CCOC(=O)Cc1[nH]c(=S)n2c1C[C@@H](c1c(F)ccc(Br)c1F)C2 ... 20.8 % of control
CS(=O)(=O)NC(=O)Cc1[nH]c(=S)n2c1C[C@H](c1cc(F)ccc1F)C2 ... 100.2 % of control
O=C(Cc1[nH]c(=S)n2c1C[C@@H](c1c(F)ccc(Cl)c1F)C2)NCCn1cccn1 ... 31.3 % of control
Cl.Cn1c(CCN2CCOCC2)c2n(c1=S)C[C@@H](c1c(F)c(F)cc(F)c1F)C2 ... 92.4 % of control
Cn1c(CCC(=O)Nc2ccccn2)c2n(c1=S)C[C@H](c1c(F)ccc(Cl)c1F)C2 ... 57.7 % of control

# per-item lookup of Plasma (0.1 μM), activity in % of control; items listed below
1. O=C(Cc1[nH]c(=S)n2c1[C@@H]1C[C@]1(c1cc(Br)ccc1F)C2)NC1CCOC1 (stereo partly shown)
2. CN(CCO)CCc1[nH]c(=S)n2c1C[C@H](c1c(F)ccc(Br)c1F)C2
3. O=C(O)Cc1[nH]c(=S)n2c1[C@@H]1C[C@]1(c1cc(Cl)ccc1F)C2

Reply:
1: 17.1 % of control; 2: 79.8 % of control; 3: 10.3 % of control

State recorded Plasma (0.1 μM), activity in % of control for all listed molecules.
1. O=C(Cc1[nH]c(=S)n2c1C[C@H](c1c(F)ccc(Br)c1F)C2)NC1CCS(=O)(=O)CC1
2. O=C(Cc1[nH]c(=S)n2c1[C@@H]1C[C@]1(c1c(F)ccc(Cl)c1F)C2)NCCn1cccn1
3. Cn1c(CC(=O)NC2CCCCC2)c2n(c1=S)C[C@@]1(c3cc(Cl)ccc3F)C[C@@H]21
4. Cl.Cn1c(CCN[C@@H]2CCOC2)c2n(c1=S)C[C@H](c1c(F)ccc(Br)c1F)C2
5. O=C(Cc1[nH]c(=S)n2c1C[C@@H](c1c(F)ccc(Cl)c1F)C2)NCC(F)(F)F

Reply:
1: 8.4 % of control; 2: 16.2 % of control; 3: 7.7 % of control; 4: 29.2 % of control; 5: 25.6 % of control
